Source: patent US20030236407A1

test: Critical micelle formation concentration (CMC) by concentration-dependent determination of the surface tension
Assay type: physicochemical
experimental-parameters: aqueous solution; from concentration-dependent surface tension
value-kind: Critical Micelle Formation Concentration (CMC) (mol/L)
I only need the number, in mol/L, no unit after it.

O=C(O)CN(C(=O)CCC(=O)N1CCN(S(=O)(=O)C(F)(F)C(F)(F)C(F)(F)C(F)(F)C(F)(F)C(F)(F)C(F)(F)C(F)(F)F)CC1)c1c(I)c(C(=O)N(CC(O)CO)CC(O)CO)c(I)c(C(=O)N(CC(O)CO)CC(O)CO)c1I (stereo not drawn)
5.4e-05
O=C(O)CN(C(=O)COCC(=O)N1CCN(S(=O)(=O)C(F)(F)C(F)(F)C(F)(F)C(F)(F)C(F)(F)C(F)(F)C(F)(F)C(F)(F)F)CC1)c1c(I)c(C(=O)N(CC(O)CO)CC(O)CO)c(I)c(C(=O)N(CC(O)CO)CC(O)CO)c1I (stereo not drawn)
6.4e-05
CN(CC(O)C(O)C(O)C(O)CO)C(=O)c1c(I)c(NC(=O)COCC(=O)N2CCN(S(=O)(=O)C(F)(F)C(F)(F)C(F)(F)C(F)(F)C(F)(F)C(F)(F)C(F)(F)C(F)(F)F)CC2)c(I)c(C(=O)N(C)CC(O)C(O)C(O)C(O)CO)c1I (stereo not drawn)
0.00012
O=C(CCC(=O)N1CCN(S(=O)(=O)C(F)(F)C(F)(F)C(F)(F)C(F)(F)C(F)(F)C(F)(F)C(F)(F)C(F)(F)F)CC1)Nc1c(I)c(C(=O)N(CC(O)CO)CC(O)CO)c(I)c(C(=O)N(CC(O)CO)CC(O)CO)c1I (stereo not drawn)
5.4e-05
CN(CC(O)C(O)C(O)C(O)CO)C(=O)c1c(I)c(C(=O)N(C)CC(O)C(O)C(O)C(O)CO)c(I)c(N(CC(=O)O)C(=O)COCC(=O)N2CCN(S(=O)(=O)C(F)(F)C(F)(F)C(F)(F)C(F)(F)C(F)(F)C(F)(F)C(F)(F)C(F)(F)F)CC2)c1I (stereo not drawn)
6.9e-05

Attention now shifts to the item below.
O=C(COCC(=O)N1CCN(S(=O)(=O)C(F)(F)C(F)(F)C(F)(F)C(F)(F)C(F)(F)C(F)(F)C(F)(F)C(F)(F)F)CC1)Nc1c(I)c(C(=O)N(CC(O)CO)CC(O)CO)c(I)c(C(=O)N(CC(O)CO)CC(O)CO)c1I (stereo not drawn) has a reported Critical Micelle Formation Concentration (CMC) of 6.2e-05
